Entries and their pKi values follow.
- TESTED TARGET: Muscarinic acetylcholine receptor M1 (Homo sapiens)
- Sequence (P11229 whole entry): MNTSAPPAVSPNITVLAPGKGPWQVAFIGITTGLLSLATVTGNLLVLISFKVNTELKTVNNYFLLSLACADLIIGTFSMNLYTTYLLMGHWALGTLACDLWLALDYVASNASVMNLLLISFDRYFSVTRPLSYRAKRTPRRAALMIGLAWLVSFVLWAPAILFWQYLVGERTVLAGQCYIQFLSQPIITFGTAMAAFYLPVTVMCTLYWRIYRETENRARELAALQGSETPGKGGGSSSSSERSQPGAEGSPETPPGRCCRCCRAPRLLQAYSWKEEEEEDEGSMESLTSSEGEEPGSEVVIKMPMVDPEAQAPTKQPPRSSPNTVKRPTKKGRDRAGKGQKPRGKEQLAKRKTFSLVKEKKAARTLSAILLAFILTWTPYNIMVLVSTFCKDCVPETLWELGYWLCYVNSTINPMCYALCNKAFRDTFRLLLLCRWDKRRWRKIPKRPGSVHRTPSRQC
- ASSAY PROTOCOL: Binding affinity towards human muscarinic M1 receptor in CHO-KI cells using [3H]- QNB as radioligand
For clarity, pKi is expressed as the negative log10 of concentration in mol/L.

Example cases with answers are listed next.
COMPOUND	pKi
C[C@@H]1OC(=O)[C@H]2C[C@H]3CCCC[C@@H]3[C@@H](CCCN3CCc4ccccc4C3)[C@@H]12	6.52
C[C@@H]1OC(=O)[C@H]2C[C@H]3CCCC[C@@H]3[C@@H](CCCN3CCC(N4CCCCC4)CC3)[C@@H]12	6.51

Read the next record carefully.
The reported pKi of the compound C[C@@H]1OC(=O)[C@H]2C[C@H]3CCCC[C@@H]3[C@@H](/C=C/[C@H]3CCC[C@H](C)N3C)[C@@H]12 [HIMBACINE] was 8.35
